# System: Escherichia coli
# ASSAY_COMMENT: Antibacterial activity against Escherichia coli JM109 after 24 hrs by microbroth dilution method
# Format: functional
# ASSAY_SETUP: JM109, 24 h
OUTCOME_MEASURE: MIC (µg/mL)
Numeric answer only, unit µg/mL assumed.

Example cases with answers are listed next.
Cc1nc(N2CCOCC2)c([N+](=O)[O-])n1CC(O)CN1CCN(c2cc3c(cc2F)c(=O)c(C(=O)O)cn3C2CC2)CC1 (stereo not drawn) :: 16
Cc1nc(N2CCCC2)c([N+](=O)[O-])n1CC(O)CNC1CCN(c2c(F)cc3c(=O)c(C(=O)O)cn(C4CC4)c3c2Cl)C1 (stereo not drawn) :: 8
CCn1cc(C(=O)O)c(=O)c2cc(F)c(N3CCN(CC(O)Cn4c(C)nc(N5CCOCC5)c4[N+](=O)[O-])CC3)cc21 (stereo not drawn) :: 64
CCn1cc(C(=O)O)c(=O)c2cc(F)c(N3CCNCC3)cc21 :: 2
CCn1cc(C(=O)O)c(=O)c2cc(F)c(N3CCN(CC(O)Cn4c(C)nc(N5CCCC5)c4[N+](=O)[O-])CC3)cc21 (stereo not drawn) :: 128
Cc1nc(N2CCCCC2)c([N+](=O)[O-])n1CC(O)CNC1CCN(c2c(F)cc3c(=O)c(C(=O)O)cn(C4CC4)c3c2Cl)C1 (stereo not drawn) :: 32
O=C(O)c1cn(C2CC2)c2cc(N3CCN(CC4CO4)CC3)c(F)cc2c1=O (stereo not drawn) :: 1
CCn1cc(C(=O)O)c(=O)c2cc(F)c(N3CCN(CC(O)Cn4c([N+](=O)[O-])cnc4C)CC3)cc21 (stereo not drawn) :: 32

MIC for Escherichia coli with input O=C(O)c1cn(C2CC2)c2c(Cl)c(NC3CCN(CC4CO4)C3)c(F)cc2c1=O (stereo not drawn) equals 0.5

Escherichia coli assay, molecule Cc1ncc([N+](=O)[O-])n1CC(O)CNC1CCN(c2c(F)cc3c(=O)c(C(=O)O)cn(C4CC4)c3c2Cl)C1 (stereo not drawn) , recorded MIC = 2

# Cc1nc(N2CCCC2)c([N+](=O)[O-])n1CC(O)CN1CCN(c2cc3c(cc2F)c(=O)c(C(=O)O)cn3C2CC2)CC1 (stereo not drawn) with Escherichia coli: MIC is 64

Test item Cc1nc(N2CCCCC2)c([N+](=O)[O-])n1CC(O)CN1CCN(c2cc3c(cc2F)c(=O)c(C(=O)O)cn3C2CC2)CC1 (stereo not drawn) ; Escherichia coli; reported MIC was 128

Known value: Escherichia coli MIC of the molecule CCn1cc(C(=O)O)c(=O)c2cc(F)c(N3CCN(CC(O)Cn4c(C)nc(N5CCCCC5)c4[N+](=O)[O-])CC3)cc21 (stereo not drawn) equals 256

====

# ASSAY_COMMENT: Cytotoxicity against MEF assessed as inhibition of cell proliferation at 1 umol/L after 72 hrs by MTT assay relative to control
# Type: cell-based
# ASSAY_SETUP: mouse, MEF cells
OUTCOME_MEASURE: inhibition at 72 h, 1 µM (%)
Field: numeric (%). Do not append units.

The reported inhibition at 72 h, 1 µM of the compound Cc1ncc([N+](=O)[O-])n1CC(O)CNC1CCN(c2c(F)cc3c(=O)c(C(=O)O)cn(C4CC4)c3c2Cl)C1 (stereo unspecified) was 0

====

# ASSAY_COMMENT: Cytotoxicity against MEF assessed as inhibition of cell proliferation at 10^-2 umol/L after 72 hrs by MTT assay relative to control
# Assay type: cell-based
# ASSAY_SETUP: mouse, MEF cells
OUTCOME_MEASURE: inhibition at 72 h, 0.01 umol/L (%)
// units = %; emit number, no label

For reference, reported inhibition at 72 h, 0.01 umol/L for Cc1ncc([N+](=O)[O-])n1CC(O)CNC1CCN(c2c(F)cc3c(=O)c(C(=O)O)cn(C4CC4)c3c2Cl)C1 (stereo unspecified) stands at 0

====

# ASSAY_COMMENT: Cytotoxicity against MEF assessed as inhibition of cell proliferation at 3 x 10^-2 umol/L after 72 hrs by MTT assay relative to control
# Format: cell-based
# ASSAY_SETUP: mouse, MEF cells
OUTCOME_MEASURE: inhibition at 72 h, 0.03 umol/L
Hey, just the number and the unit after it is fine.

Kindly note the recorded inhibition at 72 h, 0.03 umol/L for Cc1ncc([N+](=O)[O-])n1CC(O)CNC1CCN(c2c(F)cc3c(=O)c(C(=O)O)cn(C4CC4)c3c2Cl)C1 (stereo unspecified) , which is 0%

====

# ASSAY_COMMENT: Cytotoxicity against mouse C2C12 cells assessed as inhibition of cell proliferation at 3 x 10^-1 umol/L after 72 hrs by MTT assay relative to control
# Type: cell-based
OUTCOME_MEASURE: inhibition at 72 h, 0.3 umol/L (%)
Write the number in % without appending the unit.

Reported inhibition at 72 h, 0.3 umol/L for Cc1ncc([N+](=O)[O-])n1CC(O)CNC1CCN(c2c(F)cc3c(=O)c(C(=O)O)cn(C4CC4)c3c2Cl)C1 (stereo unspecified) was 0.3

====

# ASSAY_COMMENT: Cytotoxicity against HEK293 cells assessed as inhibition of cell proliferation at 30 umol/L after 72 hrs by MTT assay relative to control
# Format: cell-based
# ASSAY_SETUP: human
OUTCOME_MEASURE: inhibition at 72 h, 30 µM (%)
Return type: number; implicit unit %.

// recorded inhibition at 72 h, 30 µM for Cc1ncc([N+](=O)[O-])n1CC(O)CNC1CCN(c2c(F)cc3c(=O)c(C(=O)O)cn(C4CC4)c3c2Cl)C1 (stereo unspecified) : 25.7

====

# System: Micrococcus luteus
# ASSAY_COMMENT: Antibacterial activity against Micrococcus luteus ATCC 4698 after 24 hrs by microbroth dilution method
# Assay type: functional
# ASSAY_SETUP: NCTC 2665, 24 h
OUTCOME_MEASURE: MIC (µg/mL)
Enter your answer as a number in µg/mL; do not include the unit.

Below, each entry is followed by its recorded MIC result.
O=C(O)c1cn(C2CC2)c2c(Cl)c(NC3CCN(CC4CO4)C3)c(F)cc2c1=O (centres undefined) :: 0.25
Cc1nc(N2CCOCC2)c([N+](=O)[O-])n1CC(O)CN1CCN(c2cc3c(cc2F)c(=O)c(C(=O)O)cn3C2CC2)CC1 (centres undefined) :: 16
CCn1cc(C(=O)O)c(=O)c2cc(F)c(N3CCN(CC(O)Cn4c(C)nc(N5CCOCC5)c4[N+](=O)[O-])CC3)cc21 (centres undefined) :: 8

Then this compound:
Looking up NC1CCN(c2c(F)cc3c(=O)c(C(=O)O)cn(C4CC4)c3c2Cl)C1 (centres undefined) , I found its MIC recorded as 0.5

====

# ASSAY_COMMENT: Ionization constant, pKa of the compound by UV spectroscopic analysis
# Type: physicochemical
OUTCOME_MEASURE: pKa
Just the number, please.

Cc1nc(N2CCCCC2)c([N+](=O)[O-])n1CC(O)CN1CCN(c2cc3c(cc2F)c(=O)c(C(=O)O)cn3C2CC2)CC1 (configuration not stated) :: 6.9
Cc1nc(N2CCCCC2)c([N+](=O)[O-])n1CC(O)CNC1CCN(c2c(F)cc3c(=O)c(C(=O)O)cn(C4CC4)c3c2Cl)C1 (configuration not stated) :: 6.69
Cc1nc(N2CCCC2)c([N+](=O)[O-])n1CC(O)CN1CCN(c2cc3c(cc2F)c(=O)c(C(=O)O)cn3C2CC2)CC1 (configuration not stated) :: 6.72
Cc1ncc([N+](=O)[O-])n1CC(O)CN1CCN(c2cc3c(cc2F)c(=O)c(C(=O)O)cn3C2CC2)CC1 (configuration not stated) :: 6.67
Cc1nc(N2CCCC2)c([N+](=O)[O-])n1CC(O)CNC1CCN(c2c(F)cc3c(=O)c(C(=O)O)cn(C4CC4)c3c2Cl)C1 (configuration not stated) :: 6.54
CCn1cc(C(=O)O)c(=O)c2cc(F)c(N3CCN(CC(O)Cn4c(C)nc(N5CCCCC5)c4[N+](=O)[O-])CC3)cc21 (configuration not stated) :: 6.75
CCn1cc(C(=O)O)c(=O)c2cc(F)c(N3CCN(CC(O)Cn4c([N+](=O)[O-])cnc4C)CC3)cc21 (configuration not stated) :: 6.57
CCn1cc(C(=O)O)c(=O)c2cc(F)c(N3CCN(CC(O)Cn4c(C)nc(N5CCOCC5)c4[N+](=O)[O-])CC3)cc21 (configuration not stated) :: 6.64

Lab book: pKa of Cc1nc(N2CCOCC2)c([N+](=O)[O-])n1CC(O)CN1CCN(c2cc3c(cc2F)c(=O)c(C(=O)O)cn3C2CC2)CC1 (configuration not stated) noted as 6.77

In plain terms, Cc1ncc([N+](=O)[O-])n1CC(O)CNC1CCN(c2c(F)cc3c(=O)c(C(=O)O)cn(C4CC4)c3c2Cl)C1 (configuration not stated) has a documented pKa of 6.48

Field pKa (entry Cc1nc(N2CCOCC2)c([N+](=O)[O-])n1CC(O)CNC1CCN(c2c(F)cc3c(=O)c(C(=O)O)cn(C4CC4)c3c2Cl)C1 (configuration not stated) ) reads 6.57

// pKa lookup, molecule = CCn1cc(C(=O)O)c(=O)c2cc(F)c(N3CCN(CC(O)Cn4c(C)nc(N5CCCC5)c4[N+](=O)[O-])CC3)cc21 (configuration not stated) , result: 6.68
